- assay: Lyophilisation solubility assay (Lysa)
- Type: physicochemical
- study-conditions: phosphate buffer, pH 6.5, aqueous buffer, thermodynamic from solid
Let's look at some compounds and their measured solubility thermodynamic.

smiles-str | result
COC(=O)C1=C(CN2CC(F)(F)C[C@H]2C(=O)O)NC(c2cc(F)cs2)=N[C@H]1c1ccc(F)cc1Cl | 488 µg/mL
CCOC(=O)C1=C(CN2CCOC[C@H]2C(=O)O)NC(c2nccs2)=N[C@H]1c1ccc(F)c(F)c1F | > 626 µg/mL
CCOC(=O)C1=C(CN2CCOC[C@H]2C(=O)O)NC(c2nccs2)=N[C@H]1c1ccc(F)c(F)c1Br | > 710 µg/mL
COC(=O)C1=C(CN2CCO[C@H](C)[C@H]2C(=O)O)NC(c2nccs2)=N[C@H]1c1ccc(F)c(F)c1F | > 617 µg/mL
COC(=O)C1=C(CN2CC(F)(F)C[C@H]2C(=O)O)NC(c2cc(Cl)cs2)=N[C@H]1c1ccc(F)cc1Cl | 172 µg/mL

// returns reported solubility thermodynamic for input COC(=O)C1=C(CN2CCOC[C@H]2C(=O)O)NC(c2ncoc2C)=N[C@H]1c1ccc(F)cc1Br
> 678 µg/mL

Name the reported solubility thermodynamic value associated with the compound COC(=O)C1=C(CN2CC(F)(F)C(C)(C)[C@H]2C(=O)O)NC(c2nccs2)=N[C@H]1c1ccc(F)cc1Cl
> 525 µg/mL

Consider the compound COC(=O)C1=C(CN2CC(F)(F)C[C@H]2C(=O)O)NC(c2cc(C)ccn2)=N[C@H]1c1ccc(F)cc1Cl and give its measured solubility thermodynamic.
> 620 µg/mL

Sample CCOC(=O)C1=C(CN2CCOC[C@H]2C(=O)O)NC(c2nccs2)=N[C@H]1c1cccc(F)c1F — what was its solubility thermodynamic?
> 611 µg/mL

* * *

- assay: Lyophilisation solubility assay (Lysa)
- Format: physicochemical
- study-conditions: phosphate buffer, pH 6.5, aqueous buffer, thermodynamic from solid
// values below are reported solubility thermodynamic

compound | solubility thermodynamic
CCOC(=O)C1=C(CN2CCOC[C@H]2C(=O)O)NC(c2nccs2)=N[C@H]1c1ccc(Cl)c(F)c1 | > 652 µg/mL
COC(=O)C1=C(CN2CCOC[C@H]2C(=O)O)NC(c2nc(C(F)(F)F)cs2)=N[C@H]1c1ccc(F)cc1Cl | > 705 µg/mL
CCOC(=O)C1=C(CN2CCOC[C@H]2C(=O)O)NC(c2nccs2)=N[C@H]1c1ccc(Br)cc1F | > 690 µg/mL
COC(=O)C1=C(CN2CCOC[C@H]2C(=O)O)NC(c2nccs2)=N[C@H]1c1ccc(F)cc1Br | > 691 µg/mL
CCOC(=O)C1=C(CN2CC(F)(F)C[C@H]2C(=O)O)NC(c2nccs2)=NC1c1ccc(F)cc1Cl (stereo partly drawn) | 668 µg/mL

May I ask what solubility thermodynamic has been recorded for COC(=O)C1=C(CN2CC(F)(F)CC[C@@H]2C(=O)O)NC(c2nccs2)=N[C@H]1c1cccc(F)c1Cl ?
> 661 µg/mL

Report solubility thermodynamic for CCOC(=O)C1=C(CN2CCO[C@H](C)[C@H]2C(=O)O)NC(c2nccs2)=N[C@H]1c1cccc(F)c1Cl please.
> 630 µg/mL

Data request, read-out solubility thermodynamic, for COC(=O)C1=C(CN2CC(F)(F)C[C@H]2C(=O)O)NC(c2nccs2)=N[C@H]1c1cc(F)c(F)cc1Cl
> 659 µg/mL

Form field: reported solubility thermodynamic of COC(=O)C1=C(CN2CC(F)(F)C[C@H]2C(=O)O)NC(c2nccs2)=N[C@H]1c1ccc(Cl)cc1Cl
> 599 µg/mL

Return reported solubility thermodynamic; argument: CC(C)OC(=O)C1=C(CN2CCOC[C@H]2C(=O)O)NC(c2nccs2)=N[C@H]1c1ccc(F)cc1Cl
> 650 µg/mL
